The origin of these recorded values is patent US20030104473A1.

target: dihydrodipicolinate reductase (DHPR) (Escherichia coli, UniProt P04036); test: DHPR kinetic assay, spectrophotometric oxidation of NADPH at 340 nm; assay type: biochemical; conditions: Example 14, common ligand mimics (FIG. 8); read-out: IC50 for DHPR
Sequence (P04036 whole entry): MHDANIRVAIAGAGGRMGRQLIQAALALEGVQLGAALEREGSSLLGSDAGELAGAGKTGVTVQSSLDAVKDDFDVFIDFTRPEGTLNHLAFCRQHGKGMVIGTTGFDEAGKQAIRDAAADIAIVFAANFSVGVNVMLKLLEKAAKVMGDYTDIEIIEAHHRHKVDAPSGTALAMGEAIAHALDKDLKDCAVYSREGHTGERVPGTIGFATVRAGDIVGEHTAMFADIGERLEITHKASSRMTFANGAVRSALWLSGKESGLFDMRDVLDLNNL
PROPERTY LABEL: IC50

Field: example entries. Status: answers known.
1. Cc1ccc2[nH]c(-c3ccc(-c4ccc(C(=O)O)cc4)o3)nc2c1 [compound 6c] : > 60 µM
2. Cc1cccc2[nH]c(-c3ccc(-c4ccc(C(=O)O)cc4)o3)nc12 [compound 6a] : > 100 µM
3. O=C(O)c1ccc(-c2ccc(-c3nc4ccccc4[nH]3)o2)cc1 [compound 6b] : 32.6 µM

Now take the following compound into account.
Exam item: Note IC50 for the compound shown: `COC(=O)c1ccc(-c2ccc(-c3nc4cc([N+](=O)[O-])ccc4[nH]3)o2)cc1`
Marked response: > 25 µM

###

Target: glyceraldehyde-3-phosphate dehydrogenase (GAPDH) (Escherichia coli, UniProt P0A9B2)
Sequence (P0A9B2 whole entry): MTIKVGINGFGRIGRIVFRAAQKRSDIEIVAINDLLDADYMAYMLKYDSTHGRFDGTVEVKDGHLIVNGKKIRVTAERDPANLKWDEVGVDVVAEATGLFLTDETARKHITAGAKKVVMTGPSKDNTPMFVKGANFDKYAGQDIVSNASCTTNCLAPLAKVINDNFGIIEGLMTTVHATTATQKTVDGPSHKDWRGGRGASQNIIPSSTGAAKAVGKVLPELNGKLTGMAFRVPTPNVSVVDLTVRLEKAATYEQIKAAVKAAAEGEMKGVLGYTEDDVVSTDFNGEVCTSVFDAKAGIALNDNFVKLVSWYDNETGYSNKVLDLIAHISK
Experiment: GAPDH kinetic assay, spectrophotometric reduction of NAD+ at 340 nm
Assay type: biochemical, E. coli
Protocol: For GAPDH analysis, the compounds were screened using a kinetic protocol that spectrophotometrically evaluates reduction of NAD+. Stock solutions of each of the reagents were prepared in the following concentrations. […] The GAPDH reaction was monitored at 340 nm prior to and after addition of the inhibitor to detect background reaction with the inhibitor. […] After a 50 second lag, the samples were read in a Cary spectrophotometer at 340 nm. Reading of the samples was continued until 300 seconds. […]
pIC50: −log10 of the molar value.
PROPERTY LABEL: pIC50

Exam item: Note pIC50 for the compound shown: `O=C(O)c1ccc(-c2ccc(-c3nc4cc([N+](=O)[O-])ccc4[nH]3)o2)cc1`
Marked response: < 3.82

###

target: 1-deoxy-D-xylulose-5-phosphate reductase (DOXPR) (Escherichia coli); experiment: DOXPR kinetic assay, spectrophotometric oxidation of NADPH at 340 nm; type: biochemical; conditions: Example 13 oxidoreductase panel (FIG. 7); read-out: IC50 for DOXPR
PROPERTY LABEL: IC50

Exam item: Note IC50 for the molecule shown: `O=C(O)c1ccc(-c2ccc(-c3nc4ccccc4[nH]3)o2)cc1`
Marked response: > 60 µM

###

target: Human Aldose Reductase (AR) (Homo sapiens, UniProt P15121)
PROPERTY LABEL: IC50

Exam item: Note IC50 for the compound shown: `O=C(O)c1ccc(-c2ccc(-c3nc4ccccc4[nH]3)o2)cc1`
Marked response: 35 µM

###

target: 1-deoxy-D-xylulose-5-phosphate reductase (DOXPR) (Escherichia coli, UniProt P45568); assay: DOXPR kinetic assay, spectrophotometric oxidation of NADPH at 340 nm; assay type: biochemical
Sequence (P45568 whole entry): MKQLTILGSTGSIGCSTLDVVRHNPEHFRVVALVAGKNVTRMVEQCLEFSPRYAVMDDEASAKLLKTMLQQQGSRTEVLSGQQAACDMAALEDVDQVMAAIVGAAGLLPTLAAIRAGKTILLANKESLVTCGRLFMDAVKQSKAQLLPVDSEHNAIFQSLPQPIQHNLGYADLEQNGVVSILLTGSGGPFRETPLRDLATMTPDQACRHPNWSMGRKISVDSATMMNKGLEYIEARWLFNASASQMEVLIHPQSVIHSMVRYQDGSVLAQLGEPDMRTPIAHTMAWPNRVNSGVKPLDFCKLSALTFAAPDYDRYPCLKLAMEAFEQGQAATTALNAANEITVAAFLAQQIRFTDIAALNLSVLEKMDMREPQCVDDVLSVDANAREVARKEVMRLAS
PROPERTY LABEL: IC50 (µM)
Answer with a number only, understood to be in µM.

Exam item: Note IC50 for the compound shown: `O=C(O)c1ccc(-c2ccc(-c3nc4cc([N+](=O)[O-])ccc4[nH]3)o2)cc1`
Marked response: 21.4

###

Target: alcohol dehydrogenase (ADH) (Saccharomyces cerevisiae, UniProt P00330)
Sequence (P00330 1-348): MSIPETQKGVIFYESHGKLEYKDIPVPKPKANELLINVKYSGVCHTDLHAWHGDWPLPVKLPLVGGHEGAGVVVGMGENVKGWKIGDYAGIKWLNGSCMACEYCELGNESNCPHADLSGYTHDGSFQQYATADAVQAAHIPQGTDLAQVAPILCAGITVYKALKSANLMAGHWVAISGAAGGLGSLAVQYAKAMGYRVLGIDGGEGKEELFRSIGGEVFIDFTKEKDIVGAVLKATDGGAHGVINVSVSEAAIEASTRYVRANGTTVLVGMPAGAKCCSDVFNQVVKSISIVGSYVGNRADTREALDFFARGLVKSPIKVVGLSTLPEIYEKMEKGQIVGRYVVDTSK
PROPERTY LABEL: pIC50
Lab note: report pIC50 as minus log10 of the concentration in molar units, number only.

Exam item: Give pIC50 for `O=C(O)c1ccc(-c2ccc(-c3nc4ccccc4[nH]3)o2)cc1` tested on alcohol dehydrogenase (ADH) (Saccharomyces cerevisiae, UniProt P00330).
Marked response: 4.31

###

Molecular target: dihydrodipicolinate reductase (DHPR) (Escherichia coli, UniProt P04036)
Assay: DHPR kinetic assay, spectrophotometric oxidation of NADPH at 340 nm
Type: biochemical
Details: IC50 for DHPR, Example 14, common ligand mimics (FIG. 8)
Description: For DHPR analysis, the compounds were screened using a kinetic protocol that spectrophotometrically evaluates oxidation of NADPH. Stock solutions of each of the reagents were prepared in the following concentrations. […] The DHPS reaction was monitored at 340 nm prior to and after addition of the inhibitor to detect background reaction with the inhibitor. […] In DHPR samples, 5 μl of the diluted DHPR enzyme were added. […] After a 50 second lag, the samples were read in a Cary spectrophotometer at 340 nm. […]
PROPERTY LABEL: IC50

Exam item: Note IC50 for the compound shown: `O=C(O)c1ccc(-c2ccc(-c3nc4cc([N+](=O)[O-])ccc4[nH]3)o2)cc1`
Marked response: > 75 µM

###

molecular target: dihydrodipicolinate reductase (DHPR) (Escherichia coli); assay: DHPR kinetic assay, spectrophotometric oxidation of NADPH at 340 nm; format: biochemical; conditions: Example 13 oxidoreductase panel (FIG. 7); read-out: IC50 for DHPR
pIC50: −log10 of the molar value.
PROPERTY LABEL: pIC50

Exam item: Note pIC50 for the compound shown: O=C(O)c1ccc(-c2ccc(-c3nc4ccccc4[nH]3)o2)cc1 [compound 6b]
Marked response: < 4.32

###

biological target: glyceraldehyde-3-phosphate dehydrogenase (GAPDH) (Escherichia coli, UniProt P0A9B2); assay: GAPDH kinetic assay, spectrophotometric reduction of NAD+ at 340 nm; format: biochemical, E. coli; details: Example 13 oxidoreductase panel (FIG. 7); read-out: IC50 for GAPDH
PROPERTY LABEL: IC50

Exam item: Note IC50 for the molecule shown: O=C(O)c1ccc(-c2ccc(-c3nc4ccccc4[nH]3)o2)cc1 [compound 6b]
Marked response: > 60 µM

###

molecular target: dihydrofolate reductase (DHFR) (UniProt P00374); assay: DHFR kinetic assay, spectrophotometric oxidation of NADH at 340 nm; assay type: biochemical; conditions: Example 13 oxidoreductase panel (FIG. 7); read-out: IC50 for DHFR
Sequence (P00374 whole entry): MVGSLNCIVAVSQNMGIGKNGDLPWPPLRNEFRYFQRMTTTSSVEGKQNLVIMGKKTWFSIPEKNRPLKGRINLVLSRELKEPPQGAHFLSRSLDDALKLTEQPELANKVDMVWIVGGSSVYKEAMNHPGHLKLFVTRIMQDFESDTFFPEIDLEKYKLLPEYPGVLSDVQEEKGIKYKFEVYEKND
pIC50: −log10 of the molar value.
PROPERTY LABEL: pIC50

Exam item: Give pIC50 for O=C(O)c1ccc(-c2ccc(-c3nc4ccccc4[nH]3)o2)cc1 [compound 6b] tested on dihydrofolate reductase (DHFR) (UniProt P00374).
Marked response: < 4.40

###

Target: dihydrodipicolinate reductase (DHPR) (Escherichia coli, UniProt P04036)
Test: DHPR kinetic assay, spectrophotometric oxidation of NADPH at 340 nm
Assay type: biochemical
Settings: IC50 for DHPR, Example 13 oxidoreductase panel (FIG. 7)
Protocol: For DHPR analysis, the compounds were screened using a kinetic protocol that spectrophotometrically evaluates oxidation of NADPH. Stock solutions of each of the reagents were prepared in the following concentrations. […] The DHPS reaction was monitored at 340 nm prior to and after addition of the inhibitor to detect background reaction with the inhibitor. […] In DHPR samples, 5 μl of the diluted DHPR enzyme were added. […] After a 50 second lag, the samples were read in a Cary spectrophotometer at 340 nm. […]
PROPERTY LABEL: IC50

Exam item: Note IC50 for the compound shown: `O=C(O)c1ccc(-c2ccc(-c3nc4cc([N+](=O)[O-])ccc4[nH]3)o2)cc1`
Marked response: > 75 µM
